- Tested on: VIM-2 metallo-beta-lactamase (Pseudomonas aeruginosa)
- assay.info: inhibition of VIM-2 nitrocefin hydrolysis – biochemical, epi-absorbance readout, Pseudomonas aeruginosa enzyme, primary screen (AID 1527);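 note: red hydrolysis product quenches plate fluorescence so inhibitors raise well fluorescence; 0% = enzyme with DMSO and 100% = DMSO without enzyme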
- test.settings: purified VIM-2, nitrocefin hydrolysis, epi-absorbance fluorescence; at 5.6 µM; active compounds read high
Among all 290,000 compounds or so, about 2,600 (0.9%) were called active. This is one part of a sample in which actives are shown more often than they occur.
endpoint.label: inhibition (%)
Provide the reading as a plain figure in %.

Input O=C(N/N=C/c1cccc([N+](=O)[O-])c1)C1CC(=O)N(c2ccc(Br)cc2)C1 (stereo unspecified) . Output inhibition: -1.97

Input O=C(Nc1ccc(N2CCOCC2)c(Cl)c1)c1ccc(S(=O)(=O)N2CCOCC2)cc1 . Output inhibition: -1.9

Input CC(=O)Oc1ccc(-c2nc3c(C)cccc3c(=O)o2)cc1 . Output inhibition: -0.68

Input Cc1nc(N=C(N)N)nc2c(C)cccc12 . Output inhibition: 8.56

Input Cc1cccc2c(=O)n3c(nc12)CCCCC3 . Output inhibition: -3.47

Input COc1ccc2nc(/N=C(\N)NC(=O)Nc3ccccc3)nc(C)c2c1 . Output inhibition: -0.81

====

- Tested on: VIM-2 metallo-beta-lactamase (Pseudomonas aeruginosa)
- assay.info: inhibition of VIM-2 nitrocefin hydrolysis – biochemical, epi-absorbance readout, Pseudomonas aeruginosa enzyme, primary screen (AID 1527);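 note: red hydrolysis product quenches plate fluorescence so inhibitors raise well fluorescence; 0% = enzyme with DMSO and 100% = DMSO without enzyme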
- test.settings: purified VIM-2, nitrocefin hydrolysis, epi-absorbance fluorescence; at 5.6 µM; active compounds read high
The whole screen tested about 290,000 compounds, of which about 2,600 (0.9%) were called active. The full list was thinned out, with actives kept by preference.
endpoint.label: inhibition (%)
Provide the reading as a plain figure in %.

Input O=S(=O)(Nc1cccc(-n2cnnn2)c1)c1cnc(Cl)c(Cl)c1 . Output inhibition: -1.96

Input COc1ccc(-c2nn(C)c(=O)c3ccccc23)cc1CNC(=O)C1CCCCC1 . Output inhibition: 8.72

Input COc1ccc(-c2cc(C(=O)N(C)Cc3ccc(OC)c(OC)c3OC)c3ccccc3n2)cc1OC . Output inhibition: -3.53

Input COc1ccc(-c2nn(C)c(=O)c3ccccc23)cc1NC(=O)COc1ccccc1 . Output inhibition: 3.19

Input CNc1nc2c(C)cccn2c(=O)c1C=Nc1ccc(OC)cc1 . Output inhibition: 4.33

Input C=CCOc1cccc(C2C(C(=O)c3ccc(C)o3)=C(O)C(=O)N2CCCn2ccnc2)c1 (stereo unspecified) . Output inhibition: -2.31

Input CCC(=O)N1c2ccc(S(=O)(=O)NCc3ccco3)cc2CC1C (stereo unspecified) . Output inhibition: -0.12

Input COc1cccc2c(O)cc(=O)n(C)c12 . Output inhibition: -2.19

Input COC(=O)c1c(NC(=O)c2ccc(S(=O)(=O)N3CCOCC3)cc2)sc2c1CCN(C(C)C)C2 . Output inhibition: 60.3

Input CNC(=O)c1ccsc1NC(=O)c1ccc(S(=O)(=O)N2CCc3ccccc32)cc1 . Output inhibition: -1.27

Input Cc1ccc2cc(/C=N/Nc3ccc(C(=O)O)cc3)c(Cl)nc2c1 . Output inhibition: 1.26

Input COC(=O)CN1C(=O)[C@H]2[C@@H](C3CC3)N3C(=O)CN(Cc4ccc(-c5ccccc5)cc4)C(=O)[C@@]3(Cc3ccccc3)[C@H]2C1=O . Output inhibition: -2.72

Input Cc1ccc2cc(/C=N/NC(=O)[C@@H]3CCCN3)c(Cl)nc2c1 . Output inhibition: 10.3

Input CCCn1c(SCC(N)=O)nnc1C(C)C . Output inhibition: -1.77

Input Cc1sc2ncn(CC(=O)NCCCC(=O)NCc3ccc(F)cc3)c(=O)c2c1C . Output inhibition: 0.04

Input CSCC[C@H](NC(=O)OC(C)(C)C)C(=O)N/N=C/c1cc2ccc(C)cc2nc1Cl . Output inhibition: 0.5

Input COc1ccccc1C(=O)Nc1ccnn1C1CCN(C(=O)C(C)(C)C)CC1 . Output inhibition: -0.24

Input Cc1cc(Nc2ccc(N3CCOCC3)cc2)c2cccc(C)c2n1 . Output inhibition: 2.18

Input CCc1ccc(C2N3CC4([N+](=O)[O-])CN2CC([N+](=O)[O-])(C3)C4(C)C)cc1 (stereo unspecified) . Output inhibition: -3.1

Input Cc1nn2c3cc(N4CCOCC4)ccc3nc2c2ccccc12 . Output inhibition: 10.9

Input COc1cc(/C=C2\SC(=O)NC2=O)ccc1OCc1ccc(Cl)nc1 . Output inhibition: -1.77
